# target entity: T1, ECF38_1322
# T1 chain: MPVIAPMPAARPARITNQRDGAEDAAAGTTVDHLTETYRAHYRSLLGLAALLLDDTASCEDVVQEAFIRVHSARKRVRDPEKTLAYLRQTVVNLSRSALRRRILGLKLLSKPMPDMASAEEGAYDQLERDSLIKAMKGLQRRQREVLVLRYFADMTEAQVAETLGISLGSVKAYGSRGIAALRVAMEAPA
Answer each item with its documented fold repression.
Output spec: single numeric token, no unit.

Reported fold repression for AS22_1147 (protein) MELDDIAVAWRSLEQRLDQHAALAGQVLGDLRSHAARAHLRPLWLSQSAQLLCAIALSGLVAHSWLAFPEQAAAIVGGVLLQIWCVALAASAARQLWLLSQLDFARPLLQTQRALAQLRRWRTRVAPWLGVAFWVLWVAVADAAWRALTGRSLPYAWLLCNLLVGVLGGIGTWLGYRRLQRSGHPWLERLDTVHAGRSVARTETLLEQIARFQRE was 1.99

Reported fold repression for AS31_34 (protein) MNKEKLSDHLKSEWKKIDQTANPSIPNQKELLHQLSQMKAEYRKKLLQEIILFVFCALMVVSAAILAFTQAPAVFIVLQVCVLAVLPILIAAEKKRHLGECEVKRG was 2.06
